Entry source: ChEMBL document CHEMBL2424579

Please go through the items and note down their pIC50.
# experimental.target: Protein deacetylase HDAC6 (Homo sapiens)
# Sequence (Q9UBN7 whole entry): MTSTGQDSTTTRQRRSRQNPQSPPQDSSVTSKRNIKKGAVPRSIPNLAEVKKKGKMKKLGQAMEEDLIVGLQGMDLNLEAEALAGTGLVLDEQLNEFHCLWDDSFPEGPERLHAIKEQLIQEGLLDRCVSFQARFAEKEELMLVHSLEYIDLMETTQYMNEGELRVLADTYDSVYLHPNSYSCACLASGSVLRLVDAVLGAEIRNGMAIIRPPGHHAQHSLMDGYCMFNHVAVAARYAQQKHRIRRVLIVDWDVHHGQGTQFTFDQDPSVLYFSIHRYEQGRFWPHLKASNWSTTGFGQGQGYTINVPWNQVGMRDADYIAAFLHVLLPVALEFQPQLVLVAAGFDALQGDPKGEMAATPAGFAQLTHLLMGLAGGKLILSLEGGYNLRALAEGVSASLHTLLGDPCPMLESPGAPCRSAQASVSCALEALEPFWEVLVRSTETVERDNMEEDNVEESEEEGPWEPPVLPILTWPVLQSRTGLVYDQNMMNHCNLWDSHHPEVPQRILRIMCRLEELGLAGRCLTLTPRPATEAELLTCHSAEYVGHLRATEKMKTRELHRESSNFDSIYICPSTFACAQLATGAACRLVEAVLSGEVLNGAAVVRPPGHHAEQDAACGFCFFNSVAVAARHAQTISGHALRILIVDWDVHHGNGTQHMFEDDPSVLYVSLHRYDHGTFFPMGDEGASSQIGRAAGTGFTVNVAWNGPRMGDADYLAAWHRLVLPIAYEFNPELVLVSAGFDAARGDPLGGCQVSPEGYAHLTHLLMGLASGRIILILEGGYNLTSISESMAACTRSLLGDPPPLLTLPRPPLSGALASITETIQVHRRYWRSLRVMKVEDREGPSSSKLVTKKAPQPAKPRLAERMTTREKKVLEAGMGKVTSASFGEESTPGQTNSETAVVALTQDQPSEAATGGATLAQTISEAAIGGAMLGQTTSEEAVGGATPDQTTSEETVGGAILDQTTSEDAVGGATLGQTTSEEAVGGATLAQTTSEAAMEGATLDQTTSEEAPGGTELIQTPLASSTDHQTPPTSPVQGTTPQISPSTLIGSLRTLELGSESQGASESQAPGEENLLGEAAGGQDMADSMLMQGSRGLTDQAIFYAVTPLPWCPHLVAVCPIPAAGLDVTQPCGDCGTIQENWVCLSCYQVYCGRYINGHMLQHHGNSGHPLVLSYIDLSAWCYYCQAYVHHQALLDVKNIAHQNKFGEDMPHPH
# assay.explanation: Inhibition of human recombinant HDAC6 expressed in baculovirus/sf9 cells using RHKKAc as substrate
Scale for pIC50: -log10 of concentration given in mol/L; no unit attached.

The recorded pIC50 for entry O=C(/C=C/c1ccc2c(=O)n(CCc3ccccc3)c(C3CC3)nc2c1)NO equals 7.39

The recorded pIC50 for entry CCc1nc2cc(/C=C/C(=O)NO)ccc2c(=O)n1CCc1ccc(OC)cc1 equals 7.39

The recorded pIC50 for entry Cc1nc2cc(/C=C/C(=O)NO)ccc2c(=O)n1-c1ccccc1 equals 7.06

The recorded pIC50 for entry CCc1nc2cc(F)c(/C=C/C(=O)NO)cc2c(=O)n1CCc1ccccc1 equals 8.10

The recorded pIC50 for entry CCc1nc2cc(/C=C/C(=O)NO)c(F)cc2c(=O)n1CCc1ccccc1 equals 7.85

----------
measurement.type: IC50

Assay Cytochrome P450 2D6 (Homo sapiens), sample Cc1nc2cc(/C=C/C(=O)NO)ccc2c(=O)n1CCc1ccccc1 , IC50 read: > 10 µM

----------
# Test system: Vero
# assay.explanation: Cytotoxicity against african green monkey Vero cells at 25 uM
# Type: cell-based
# experimental.conditions: chlorocebus sabaeus
measurement.type: Activity

Use the examples below as a reference point.
{"molecule.smiles": "CCc1nc2cc(/C=C/C(=O)NO)ccc2c(=O)n1CCc1ccc(F)cc1", "Activity": "Non-toxic"}
{"molecule.smiles": "O=C(/C=C/c1ccc2c(=O)n(CCc3ccccc3)cnc2c1)NO", "Activity": "Non-toxic"}
{"molecule.smiles": "CC(C)c1nc2cc(/C=C/C(=O)NO)ccc2c(=O)n1CCc1ccccc1", "Activity": "Non-toxic"}
{"molecule.smiles": "O=C(/C=C/c1ccc2c(=O)n(CCc3ccccc3)c(C3CC3)nc2c1)NO", "Activity": "Non-toxic"}

Okay, now this compound:
The recorded Activity for entry Cc1nc2cc(/C=C/C(=O)NO)ccc2c(=O)n1CCc1ccccc1 equals Non-toxic

----------
Please go through the items and note down their pIC50.
# experimental.target: Cytochrome P450 1A2 (Homo sapiens, UniProt P05177)
# Sequence (P05177 whole entry): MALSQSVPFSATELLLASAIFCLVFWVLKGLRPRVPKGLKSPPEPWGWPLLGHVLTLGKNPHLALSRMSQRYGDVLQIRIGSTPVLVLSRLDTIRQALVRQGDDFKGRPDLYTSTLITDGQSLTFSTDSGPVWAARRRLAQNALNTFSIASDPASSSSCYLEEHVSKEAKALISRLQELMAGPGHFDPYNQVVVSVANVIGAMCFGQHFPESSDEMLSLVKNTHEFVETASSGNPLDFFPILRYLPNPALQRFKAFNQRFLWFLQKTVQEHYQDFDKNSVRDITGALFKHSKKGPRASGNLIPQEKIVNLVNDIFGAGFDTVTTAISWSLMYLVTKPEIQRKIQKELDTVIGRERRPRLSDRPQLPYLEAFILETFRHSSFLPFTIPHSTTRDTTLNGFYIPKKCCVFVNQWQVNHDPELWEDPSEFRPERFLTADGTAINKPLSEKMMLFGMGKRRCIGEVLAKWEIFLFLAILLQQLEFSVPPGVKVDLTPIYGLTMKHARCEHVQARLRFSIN
pIC50: −log10 of the molar value.

The recorded pIC50 for entry CCc1nc2c(Cc3ccc(C(=O)NO)cc3)cccc2c(=O)n1CCc1ccccc1 equals < 5.00

The recorded pIC50 for entry Cc1nc2cc(/C=C/C(=O)NO)ccc2c(=O)n1CCc1ccccc1 equals < 5.00
